Reported values of inhibition for individual entries
# tested system: Hexose transporter 1 (Plasmodium falciparum) (UniProt O97467)
# experiment description: ST_JUDE_LEISH: Cytotoxicity at 2uM final concentration against transgenic Leishmania Mexicana promastigotes LmPfHT that are glucose transport deficient and complemented with the Plasmodium falciparum hexose transporter. Activity is measured by DNA content using SYBR green in vitro
# Assay type: functional
Report the value in % with no unit label.

Completed entries (count: 5):
{"compound": "CC(C)(C)c1ccc(CN2CCC(NC(=O)c3ccc(-c4cccc(Cl)c4)s3)CC2)cc1", "measured property": "inhibition", "result unit": "%", "observed value": 8.67}
{"compound": "COc1ccccc1CNC(=O)c1cc(Br)cc(N2CCN(c3ccncc3)CC2)c1", "measured property": "inhibition", "result unit": "%", "observed value": 2.47}
{"compound": "COc1ccc(CNC2CCN(C)CC2)cc1-c1ccc(S(=O)(=O)NCCc2ccccn2)c(F)c1", "measured property": "inhibition", "result unit": "%", "observed value": 2.16}
{"compound": "C[C@@]12C[C@@H](Nc3nc(NCCc4ccc(O)cc4)nc(N4CCNCC4)n3)C[C@@H](C1)c1cccc(Cl)c1O2", "measured property": "inhibition", "result unit": "%", "observed value": -1.84}
{"compound": "CCc1cn2c3c(cc(C(=O)N[C@@H](Cc4ccccc4)[C@H](O)CNC(C)C)cc13)N(C)S(=O)(=O)C2", "measured property": "inhibition", "result unit": "%", "observed value": -1.87}

Prompt: // lookup inhibition for Cc1ccc(Cn2cnc3cc(C(=O)Nc4ccc(-c5ccc(CN(C)C)cc5)cc4)ccc3c2=O)o1
Response: 2.88

Prompt: // lookup inhibition for N#Cc1ccc2[nH]cc(C(=O)CCCCCN(Cc3ccccc3)Cc3ccccc3)c2c1
Response: -2.35

Prompt: // lookup inhibition for CNC(=O)C(NC(=O)c1ccccc1C(=O)OC)c1ccccc1 (centres undefined)
Response: 0.32

Prompt: // lookup inhibition for CC(=O)c1ccccc1C(=O)N1CCOc2ccc(C(O)C(c3ccccc3)c3ccccc3)cc2C1 (centres undefined)
Response: -1.21

Prompt: // lookup inhibition for Clc1ccc(-c2cc(-c3csc(NCCN4CCCCC4)n3)on2)cc1
Response: 7.19

Prompt: // lookup inhibition for COc1ccc(CN2CCC2=O)c(OC)c1
Response: 3.17

Prompt: // lookup inhibition for Oc1ccc(CN2Cc3ccccc3OC3(CCN(Cc4c[nH]c5cnccc45)CC3)C2)cc1
Response: -0.21

Prompt: // lookup inhibition for O=C(Nc1cc(C(F)(F)F)cc(C(F)(F)F)c1)c1cc(C(F)(F)F)cc(C(F)(F)F)c1
Response: -0.43

Prompt: // lookup inhibition for O=C(NCCNc1noc(-c2sccc2Br)n1)c1ccc(Cl)cc1
Response: 3.34

Prompt: // lookup inhibition for CC(C)NCc1ccc(-c2cccc(NC(=O)c3ccc(Cl)cc3)c2)cc1
Response: 6.77

Prompt: // lookup inhibition for CC(O)C1CCCCN1C(=O)c1cccc(-c2ccc(-c3nc4cc(C(F)(F)F)ccc4[nH]3)cc2)c1 (centres undefined)
Response: 0.3

Prompt: // lookup inhibition for CCOc1ccc(S(=O)(=O)N(C)c2ccc(OCC(=O)Nc3nccs3)cc2)cc1
Response: 0.61

Prompt: // lookup inhibition for Cc1cccc(NC(c2cccs2)c2c(NC(=O)c3ccccc3)sc(C)c2C)n1 (centres undefined)
Response: 3.93

Prompt: // lookup inhibition for COc1ccc(NC(=O)C2c3ccccc3C(=O)N(CC(C)C)C2c2cccs2)cc1OC (centres undefined)
Response: 0.34
